target: human NTCP (Homo sapiens); assay: Inhibition of tauro-nor-THCA-24-DBD uptake in NTCP-transfected CHO cells; assay type: cell-based; design: expressed in transfected cells; host or cells: CHO cells, geneticin selection, expression induced with sodium butyrate; settings: compound at equimolar concentration with 3 µM tauro-nor-THCA-24-DBD, triplicate
Measured Uptake of tauro-nor-THCA-24-DBD (% of control) by item

Recorded Uptake of tauro-nor-THCA-24-DBD (% of control), per entry:
{"compound": "COc1cc2c(cc1OC)[C@@H]1C(=O)c3ccc4c(c3O[C@@H]1CO2)C=CC(C)(C)O4 [(-)-Deguelin]", "recorded_value": "27.97 % of control"}
{"compound": "CN[C@@H]1[C@@H](O)[C@@H](O[C@@H]2[C@@H](O)[C@H](O[C@H]3O[C@H]([C@@H](C)O)[C@@H](O)[C@H](O)[C@H]3N)[C@@H](N)C[C@H]2N)OC[C@]1(C)O", "recorded_value": "43.81 % of control"}
{"compound": "COP(=S)(OC)Oc1ccc(Sc2ccc(OP(=S)(OC)OC)cc2)cc1", "recorded_value": "38.51 % of control"}
{"compound": "CC(C)(O)CC[C@@H](O)[C@](C)(O)[C@H]1CC[C@@]2(O)C3=CC(=O)[C@@H]4C[C@@H](O)[C@@H](O)C[C@]4(C)[C@H]3CC[C@]12C", "recorded_value": "46.18 % of control"}
{"compound": "COC(=O)CC[C@@H](C)[C@H]1CC[C@H]2[C@@H]3CC[C@@H]4C[C@H](O)CC[C@]4(C)[C@H]3C[C@H](O)[C@]12C [Methyl deoxycholate]", "recorded_value": "36.71 % of control"}

Asked: Record request: Uptake of tauro-nor-THCA-24-DBD (% of control) value, item "CC(=O)O.Cc1cc2c(C(C)C)c(O)c(O)c(C=O)c2c(O)c1-c1c(C)cc2c(C(C)C)c(O)c(O)c(C=O)c2c1O"
Given back: 36.14 % of control

Asked: Would you kindly repeat that for "COc1c(CC=C(C)C)c2c(c3oc(=O)c(-c4ccc(O)cc4)c(O)c13)C=CC(C)(C)O2" ?
Given back: 38.92 % of control

* * *

Measured Ki by item
molecular target: human NTCP (Homo sapiens, UniProt Q14973); assay: Inhibition of tauro-nor-THCA-24-DBD uptake in NTCP-transfected CHO cells; assay type: cell-based; parameters: expressed in transfected cells; host or cells: CHO cells, geneticin selection, expression induced with sodium butyrate; settings: 3 µM tauro-nor-THCA-24-DBD; Cheng-Prusoff from IC50; screening hits; read-out: Ki
// return numeric value only (unit: nM, not printed)

Recorded Ki, per entry:
{"compound": "Oc1c(Cl)c(Cl)c(Cl)c(Cl)c1Cl [Pentachlorophenol]", "units_symbol": "nM", "Ki": 2270}
{"compound": "Cc1cc2c(C(C)C)c(O)c(O)c(C=O)c2c(O)c1-c1c(C)cc2c(C(C)C)c(O)c(O)c(C=O)c2c1O [Gossypol]", "units_symbol": "nM", "Ki": 400}
{"compound": "COc1cc(-c2coc3cc(OCc4ccccc4)c(OC)c(O)c3c2=O)cc(O)c1OC [Irigenin, 7-benzyl ether]", "units_symbol": "nM", "Ki": 13000}

Switching to the query record.
Asked: Record request: Ki value, item CCOc1nc2cccc(C(=O)OC(C)OC(=O)OC3CCCCC3)c2n1Cc1ccc(-c2ccccc2-c2nnn[nH]2)cc1 (stereo not shown) [Candesartan cilextil]
Given back: 340

* * *

molecular target: human NTCP (Homo sapiens, UniProt Q14973); experiment: Inhibition of tauro-nor-THCA-24-DBD uptake in NTCP-transfected CHO cells; type: cell-based; parameters: expressed in transfected cells; host or cells: CHO cells, geneticin selection, expression induced with sodium butyrate; details: 3 µM tauro-nor-THCA-24-DBD; values given with ± spread; read-out: Ki
Measured pKi by item
pKi field: float, defined as -log10 of concentration (mol/L).

{"molecule": "Cc1cc2c(C(=O)NC[C@H](C)c3ccccc3)c(O)c(O)cc2c(O)c1-c1c(C)cc2c(C(=O)NC[C@H](C)c3ccccc3)c(O)c(O)cc2c1O [sabutoclax]", "observation_type": "pKi", "recorded_value": 6.28}

Asked: Record request: pKi value, item CCOc1nc2cccc(C(=O)O)c2n1Cc1ccc(-c2ccccc2-c2nnn[nH]2)cc1 [candesartan]
Given back: 4.29

Asked: Would you kindly repeat that for COc1ccc(-c2oc3c(CC=C(C)C)c(O)cc(O)c3c(=O)c2O[C@@H]2O[C@@H](C)[C@H](O)[C@@H](O)[C@H]2O)cc1 [Baohuoside I] ?
Given back: 4.90

* * *

Measured Uptake of tauro-nor-THCA-24-DBD (% of control) by item
Target: human NTCP (Homo sapiens, UniProt Q14973)
Sequence (Q14973 1-349): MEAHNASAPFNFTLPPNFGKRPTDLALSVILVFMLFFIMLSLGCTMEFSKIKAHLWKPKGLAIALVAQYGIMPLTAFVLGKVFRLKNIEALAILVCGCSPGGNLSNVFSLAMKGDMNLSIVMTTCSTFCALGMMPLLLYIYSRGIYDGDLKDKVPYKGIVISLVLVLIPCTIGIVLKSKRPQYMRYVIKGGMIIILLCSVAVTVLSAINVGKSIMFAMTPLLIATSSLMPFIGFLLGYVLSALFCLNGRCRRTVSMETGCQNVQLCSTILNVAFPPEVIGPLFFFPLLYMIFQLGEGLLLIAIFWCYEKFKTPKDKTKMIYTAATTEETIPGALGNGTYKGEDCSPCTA
Test: Inhibition of tauro-nor-THCA-24-DBD uptake in NTCP-transfected CHO cells
Assay type: cell-based
Parameters: expressed in transfected cells; host or cells: CHO cells, geneticin selection, expression induced with sodium butyrate
Settings: compound at equimolar concentration with 3 µM tauro-nor-THCA-24-DBD, triplicate
Residues, ends and D or L forms follow the SMILES beside them.

Recorded Uptake of tauro-nor-THCA-24-DBD (% of control), per entry:
{"molecule": "COc1cc(OC)c2ccc(=O)oc2c1 [Citropten]", "study_target": "human NTCP (Homo sapiens, UniProt Q14973)", "recorded_value": "46.97 % of control"}
{"molecule": "Cc1cc2c(C(C)C)c(O)c(O)c(C=O)c2c(O)c1-c1c(C)cc2c(C(C)C)c(O)c(O)c(C=O)c2c1O [Gossypol]", "study_target": "human NTCP (Homo sapiens, UniProt Q14973)", "recorded_value": "12.48 % of control"}
{"molecule": "Cn1nnnc1SCC1=C(C(=O)O)N2C(=O)[C@@H](NC(=O)[C@H](O)c3ccccc3)[C@H]2SC1 [Cefamandole sodium]", "study_target": "human NTCP (Homo sapiens, UniProt Q14973)", "recorded_value": "23.97 % of control"}
{"molecule": "CCC(=O)O[C@H]1[C@H](O[C@@H]2[C@@H](C)[C@H](O[C@H]3C[C@@](C)(OC)[C@@H](O)[C@H](C)O3)[C@@H](C)C(=O)O[C@H](CC)[C@@](C)(O)[C@H](O)[C@@H](C)C(=O)[C@H](C)C[C@@]2(C)O)O[C@H](C)C[C@@H]1N(C)C [Erythromycin estolate]", "study_target": "human NTCP (Homo sapiens, UniProt Q14973)", "recorded_value": "8.49 % of control"}
{"molecule": "COc1cc(-c2coc3cc(OCc4ccccc4)c(OC)c(O)c3c2=O)cc(O)c1OC [Irigenin, 7-benzyl ether]", "study_target": "human NTCP (Homo sapiens, UniProt Q14973)", "recorded_value": "46.71 % of control"}
{"molecule": "Nc1nc(=O)c2[nH]c(=O)cnc2[nH]1 [Xanthopterin]", "study_target": "human NTCP (Homo sapiens, UniProt Q14973)", "recorded_value": "49.67 % of control"}

Asked: Record request: Uptake of tauro-nor-THCA-24-DBD (% of control) value, item COc1ccc(-c2c(OC)c3c(OC)c4c(cc3oc2=O)OC(C)(C)C=C4)cc1 [Robustic acid methyl ether]
Given back: 21.11 % of control

Asked: Would you kindly repeat that for N[C@@H](Cc1ccccc1)C(=O)N[C@@H](Cc1ccc(O)cc1)C(=O)O [Phenylalanyltyrosine] (H-Phe-Tyr-OH) ?
Given back: 47.22 % of control

* * *

biological target: human NTCP (Homo sapiens); experiment: Inhibition of tauro-nor-THCA-24-DBD uptake in NTCP-transfected CHO cells; assay type: cell-based; design: expressed in transfected cells; host or cells: CHO cells, geneticin selection, expression induced with sodium butyrate; details: 3 µM tauro-nor-THCA-24-DBD; Cheng-Prusoff from IC50; screening hits; read-out: Ki
Measured Ki by item
Include the unit after the number when you answer.

Recorded Ki, per entry:
{"compound": "CCCCCc1c2c(cc(O)c1C(=O)O)OC(=O)c1c(cc(OC)cc1C(=O)CCCC)O2", "observation_type": "Ki", "recorded_value": "0.36 µM"}
{"compound": "Cn1nnnc1SCC1=C(C(=O)O)N2C(=O)[C@@H](NC(=O)[C@H](O)c3ccccc3)[C@H]2SC1 [Cefamandole sodium]", "observation_type": "Ki", "recorded_value": "2.07 µM"}
{"compound": "COC(=O)CC[C@@H](C)[C@H]1CC[C@H]2[C@@H]3CC[C@@H]4C[C@H](O)CC[C@]4(C)[C@H]3C[C@H](O)[C@]12C [Methyl deoxycholate]", "observation_type": "Ki", "recorded_value": "4.84 µM"}

Asked: Record request: Ki value, item "COP(=S)(OC)Oc1ccc(Sc2ccc(OP(=S)(OC)OC)cc2)cc1"
Given back: 4.16 µM
